# assay.explanation: NCI Yeast Anticancer Drug Screen. Data for the mec2-1 strain (AID 157)
# condition.details: S. cerevisiae mec2-1 strain, at 50.0 µM, active compounds read high
This is part of a sample that, as a whole, favours compounds with a hit. Of some 79,000 tested, about 15% had one in any assay.
assay.endpoint: growth inhibition (%)
// note: answer is a bare numeric in %

>  <compound>
CCOC(=O)Cn1nnnc1N

>  <result.value>
23.6

$$$$
>  <compound>
COc1cccc(C2N(Cc3ccccc3OC)CCCN2Cc2ccccc2OC)c1

>  <result.value>
11.8

$$$$
>  <compound>
N#CCc1n[nH]c(Cc2ccccc2)n1

>  <result.value>
6.6

$$$$
>  <compound>
O=[N+]([O-])c1cccc(Cc2nc3ccccc3nc2-c2ccccc2)c1

>  <result.value>
18.2

$$$$
>  <compound>
COC(=O)c1ccc(N(C)CC/C(CNc2nc(N)[nH]c(=O)c2[N+](=O)[O-])=N\NC(N)=O)cc1

>  <result.value>
10.6

$$$$

IN: Input C/C=C(/C)C(=O)O[C@H]1C[C@@H]2[C@@H](O)c3occ(C)c3C[C@]2(C)[C@@H](C)C1 , output reported growth inhibition.
OUT: 92.4

IN: Input COc1cc([N+](=O)[O-])ccc1C(=O)NC(CCC(=O)O)C(=O)O (stereo unspecified) , output reported growth inhibition.
OUT: -19.9

IN: Input CN1c2ccccc2C(=O)NC12CCN(Cc1ccccc1)CC2 , output reported growth inhibition.
OUT: -16.3

* * *

# assay.explanation: NCI Yeast Anticancer Drug Screen. Data for the rad50 strain (AID 155);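 also: 0% = growth of vehicle-only cultures of the same strain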
# condition.details: S. cerevisiae rad50 strain growth inhibition; at 50.0 µM; active compounds read high
Compounds without any hit were thinned out: in the full panel of roughly 79,000, 15% have a hit. Active and inactive are the calls of the source. No stated cut-off is given here; in the data, active means growth inhibition above about 70%; inactive means the rest.
Each item that follows carries a reported growth inhibition.

Examples with their reported growth inhibition follow.
>  <compound>
CCCc1[nH]n(-c2cccc([N+](=O)[O-])c2)c(=O)c1N=Nc1ccc(Cl)cc1

>  <growth inhibition>
40.9% (inactive)

$$$$
>  <compound>
CC[O-].CC[O-].O=C([CH-]C(=O)c1ccccc1)CCCCCCCCC(=O)[CH-]C(=O)c1ccccc1.[Ti+4]

>  <growth inhibition>
-37.5% (inactive)

$$$$
>  <compound>
CC(=O)NC1CCCC(CC2CCCCC2)C1 (stereo not given)

>  <growth inhibition>
18.4% (inactive)

$$$$
>  <compound>
c1ccc(Cc2[nH]nc(-c3ccccc3)c2N=Nc2ccccc2)cc1

>  <growth inhibition>
5.55% (inactive)

$$$$

IN: Input CN(C)c1ccc(C(=O)C2N=NCC2c2ccccc2)cc1 (stereo not given) , output reported growth inhibition.
OUT: 10.3% (inactive)

* * *

# assay.explanation: NCI Yeast Anticancer Drug Screen. Data for the rad50 strain (AID 155);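 also: 0% = growth of vehicle-only cultures of the same strain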
# condition.details: S. cerevisiae rad50 strain growth inhibition; at 50.0 µM; active compounds read high
Compounds without any hit were thinned out: in the full panel of roughly 79,000, 15% have a hit.
Each item that follows carries a reported growth inhibition.
// note: answer is a bare numeric in %

Examples with their reported growth inhibition follow.
>  <molecule>
NC(N)=N/N=C/c1c(-c2ccc(Cl)cc2)nc2n1CCS2

>  <assay.endpoint>
growth inhibition

>  <unit.descriptor>
%

>  <result.value>
-36.6

$$$$
>  <molecule>
CCCCCCCCN(CCCCCCCC)CC(O)c1ccc2c(c1)Sc1ccccc1O2 (configuration not stated)

>  <assay.endpoint>
growth inhibition

>  <unit.descriptor>
%

>  <result.value>
96.7

$$$$
>  <molecule>
CN(C)c1ccc(-c2ccncc2)cc1

>  <assay.endpoint>
growth inhibition

>  <unit.descriptor>
%

>  <result.value>
21.6

$$$$
>  <molecule>
O=C(O)c1cc(Br)ccc1[N+](=O)[O-]

>  <assay.endpoint>
growth inhibition

>  <unit.descriptor>
%

>  <result.value>
-5.8

$$$$
>  <molecule>
CC(=O)NS(=O)(=O)c1ccc(NC(=O)CCC(=O)O)cc1

>  <assay.endpoint>
growth inhibition

>  <unit.descriptor>
%

>  <result.value>
-8.95

$$$$

IN: Input COc1cc(C=O)c(-c2cc(OC)c(OC)cc2C=O)cc1OC , output reported growth inhibition.
OUT: 5.9

IN: Input Cc1ccc(N=C(C(=O)c2ccccc2)C(Nc2ccc(C)cc2)C(=O)c2ccccc2)cc1 (configuration not stated) , output reported growth inhibition.
OUT: 23.8

IN: Input O=c1n(CCO)nc2n1CCCN2 , output reported growth inhibition.
OUT: 7.3

IN: Input [O-]/[N+](=C\c1ccc(OCc2ccccc2)cc1)c1ccccc1 , output reported growth inhibition.
OUT: 16.5

IN: Input CC(=O)OC1CCC2(C)C(CCC3C2CCC2(C)C3CC3OC(CCC(C)CO)C(C)C32)C1 (configuration not stated) , output reported growth inhibition.
OUT: 14.8

IN: Input Cc1[nH]c(=O)[nH]c(=O)c1NC=O , output reported growth inhibition.
OUT: -3.6

IN: Input COC(=O)CCOc1ccc(C)cc1 , output reported growth inhibition.
OUT: 28.2
